Study System: PDE11A (Homo sapiens)
Sequence (Q9HCR9 whole entry): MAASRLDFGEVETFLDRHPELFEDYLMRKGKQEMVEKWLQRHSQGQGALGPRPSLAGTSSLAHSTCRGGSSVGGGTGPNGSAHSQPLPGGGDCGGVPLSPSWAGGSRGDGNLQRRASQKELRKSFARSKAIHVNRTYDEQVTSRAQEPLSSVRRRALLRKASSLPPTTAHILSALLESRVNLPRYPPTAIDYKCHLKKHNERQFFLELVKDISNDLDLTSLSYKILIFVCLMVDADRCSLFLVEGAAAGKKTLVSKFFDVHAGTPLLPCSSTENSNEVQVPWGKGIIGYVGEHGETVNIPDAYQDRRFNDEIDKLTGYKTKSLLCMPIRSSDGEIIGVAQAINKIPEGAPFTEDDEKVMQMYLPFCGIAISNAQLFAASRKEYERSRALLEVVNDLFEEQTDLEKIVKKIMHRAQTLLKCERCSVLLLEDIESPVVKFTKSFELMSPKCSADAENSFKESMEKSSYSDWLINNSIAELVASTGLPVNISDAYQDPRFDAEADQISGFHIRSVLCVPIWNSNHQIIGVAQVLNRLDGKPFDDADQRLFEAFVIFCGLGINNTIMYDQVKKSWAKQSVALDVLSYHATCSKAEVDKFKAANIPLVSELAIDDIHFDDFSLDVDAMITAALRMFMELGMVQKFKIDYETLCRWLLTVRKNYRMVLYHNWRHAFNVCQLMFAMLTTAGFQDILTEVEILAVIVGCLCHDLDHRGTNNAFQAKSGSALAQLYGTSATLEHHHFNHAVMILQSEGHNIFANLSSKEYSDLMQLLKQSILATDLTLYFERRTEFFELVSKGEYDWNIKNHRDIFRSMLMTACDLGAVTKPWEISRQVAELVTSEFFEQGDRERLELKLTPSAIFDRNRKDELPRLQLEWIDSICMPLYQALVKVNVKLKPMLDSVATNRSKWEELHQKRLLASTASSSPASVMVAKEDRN
Run Description: PDE11A inhibition
Format: biochemical
Test Settings: IC50 PDE11A cAMP, cAMP as substrate
Measured Property: IC50
// return the numeric value with its unit appended

Request - read-out IC50 | tested on PDE11A (Homo sapiens) | molecule CCN1CC(=O)N2[C@H](c3ccc(Cl)cc3)c3[nH]c4ccccc4c3C[C@@H]2C1=O
706 nM

* * *

Study System: human PDE5 (Homo sapiens, UniProt O76074)
Run Description: PDE5 inhibition, IMAP fluorescence polarization phosphodiesterase assay
Type: biochemical
Test Settings: read-out: % cGMP inhibition (50 μM)
Measured Property: inhibition at 50 µM
// return the numeric value with its unit appended

Request - read-out inhibition at 50 µM | tested on human PDE5 (Homo sapiens, UniProt O76074) | molecule CC(C)(C)N1CC(=O)N2[C@@H](c3ccc(Cl)cc3)c3[nH]c4ccccc4c3C[C@@H]2C1=O
10%

Request - read-out inhibition at 50 µM | tested on human PDE5 (Homo sapiens, UniProt O76074) | molecule CCN1C(=O)[C@@H]2Cc3c([nH]c4ccccc34)[C@@H](c3ccc(Cl)cc3)N2C1=O
102%

Request - read-out inhibition at 50 µM | tested on human PDE5 (Homo sapiens, UniProt O76074) | molecule O=C1[C@@H]2Cc3c([nH]c4ccccc34)[C@@H](c3ccc(Cl)cc3)N2C(=O)N1c1ccc(Cl)cc1
84%

Request - read-out inhibition at 50 µM | tested on human PDE5 (Homo sapiens, UniProt O76074) | molecule COC(=O)[C@H]1Cc2c([nH]c3ccccc23)[C@@H](c2ccc(Cl)cc2)N1C(=O)CCl
25%

Request - read-out inhibition at 50 µM | tested on human PDE5 (Homo sapiens, UniProt O76074) | molecule CCN1C(=O)[C@H]2Cc3c([nH]c4ccccc34)[C@H](c3ccc(Cl)cc3)N2C1=O
47%

Request - read-out inhibition at 50 µM | tested on human PDE5 (Homo sapiens, UniProt O76074) | molecule CCN1CC(=O)N2[C@H](c3ccc(Cl)cc3)c3[nH]c4ccccc4c3C[C@@H]2C1=O
102%

Request - read-out inhibition at 50 µM | tested on human PDE5 (Homo sapiens, UniProt O76074) | molecule COC(=O)[C@@H]1Cc2c([nH]c3ccccc23)[C@@H](c2ccc(Cl)cc2)N1C(=O)CCl
78%

Request - read-out inhibition at 50 µM | tested on human PDE5 (Homo sapiens, UniProt O76074) | molecule CC(C)(C)N1C(=O)[C@@H]2Cc3c([nH]c4ccccc34)[C@@H](c3ccc(Cl)cc3)N2C1=O
83%

Request - read-out inhibition at 50 µM | tested on human PDE5 (Homo sapiens, UniProt O76074) | molecule CC(C)(C)N1C(=O)[C@H]2Cc3c([nH]c4ccccc34)[C@H](c3ccc(Cl)cc3)N2C1=O
54%

Request - read-out inhibition at 50 µM | tested on human PDE5 (Homo sapiens, UniProt O76074) | molecule O=C1[C@H]2Cc3c([nH]c4ccccc34)[C@H](c3ccc(Cl)cc3)N2C(=O)N1c1ccc(Cl)cc1
29%

Request - read-out inhibition at 50 µM | tested on human PDE5 (Homo sapiens, UniProt O76074) | molecule COC(=O)[C@H]1Cc2c([nH]c3ccccc23)[C@H](c2ccc(Cl)cc2)N1
4%

Request - read-out inhibition at 50 µM | tested on human PDE5 (Homo sapiens, UniProt O76074) | molecule O=C1[C@H]2Cc3c([nH]c4ccccc34)[C@@H](c3ccc(Cl)cc3)N2C(=O)N1c1ccc(Cl)cc1
22%

Request - read-out inhibition at 50 µM | tested on human PDE5 (Homo sapiens, UniProt O76074) | molecule CCN1C(=O)[C@@H]2Cc3c([nH]c4ccccc34)[C@H](c3ccc(Cl)cc3)N2C1=O
30%

Request - read-out inhibition at 50 µM | tested on human PDE5 (Homo sapiens, UniProt O76074) | molecule COC(=O)[C@H]1Cc2c([nH]c3ccccc23)[C@@H](c2ccc(Cl)cc2)N1
35%

Request - read-out inhibition at 50 µM | tested on human PDE5 (Homo sapiens, UniProt O76074) | molecule CCN1CC(=O)N2[C@@H](c3ccc(Cl)cc3)c3[nH]c4ccccc4c3C[C@H]2C1=O
45%

Request - read-out inhibition at 50 µM | tested on human PDE5 (Homo sapiens, UniProt O76074) | molecule CC(C)(C)N1CC(=O)N2[C@H](c3ccc(Cl)cc3)c3[nH]c4ccccc4c3C[C@@H]2C1=O
55%

Request - read-out inhibition at 50 µM | tested on human PDE5 (Homo sapiens, UniProt O76074) | molecule CC(C)(C)N1CC(=O)N2[C@@H](c3ccc(Cl)cc3)c3[nH]c4ccccc4c3C[C@H]2C1=O
42%
